Reference source: PubChem BioAssay AID1259240

- method: modulation of TERT promoter-driven luciferase – cell-based, luciferase reporter, human, primary screen (AID 1259240)
- conditionsUsed: A2780 TERT promoter luciferase reporter, 16 h; at 20 µM, fold versus average of vehicle-only wells
The source made the active and inactive calls. Cut-off read from the data, not from the text of the source: active = fold change mostly below about -2 (no sharp cut-off); inactive = mostly above about -1.8.
// classify into True = active, False = inactive

compound	classAssignment
CCOC(=O)N1CCC(Nc2ccc3nncn3n2)CC1	False
Cc1ccc(SCc2nc3sccn3c2Br)cc1	False
CC(C)C(NS(=O)(=O)c1ccc2c(c1)oc(=O)n2C)C(=O)Nc1ccc(F)c(F)c1 (stereo not given)	False

Then this compound:
Asked: Could you check what this test reported for CCOC(=O)N1CCC(Nc2c(NC3CCC(C)CC3)c(=O)c2=O)CC1 (stereo not given) ?
Given back: False
